# Study System: T1, human C1s (human, UniProt P09871 16-688)
# T1 construct: also called hC1s; serum-derived human C1s (CompTech)
# T1 sequence: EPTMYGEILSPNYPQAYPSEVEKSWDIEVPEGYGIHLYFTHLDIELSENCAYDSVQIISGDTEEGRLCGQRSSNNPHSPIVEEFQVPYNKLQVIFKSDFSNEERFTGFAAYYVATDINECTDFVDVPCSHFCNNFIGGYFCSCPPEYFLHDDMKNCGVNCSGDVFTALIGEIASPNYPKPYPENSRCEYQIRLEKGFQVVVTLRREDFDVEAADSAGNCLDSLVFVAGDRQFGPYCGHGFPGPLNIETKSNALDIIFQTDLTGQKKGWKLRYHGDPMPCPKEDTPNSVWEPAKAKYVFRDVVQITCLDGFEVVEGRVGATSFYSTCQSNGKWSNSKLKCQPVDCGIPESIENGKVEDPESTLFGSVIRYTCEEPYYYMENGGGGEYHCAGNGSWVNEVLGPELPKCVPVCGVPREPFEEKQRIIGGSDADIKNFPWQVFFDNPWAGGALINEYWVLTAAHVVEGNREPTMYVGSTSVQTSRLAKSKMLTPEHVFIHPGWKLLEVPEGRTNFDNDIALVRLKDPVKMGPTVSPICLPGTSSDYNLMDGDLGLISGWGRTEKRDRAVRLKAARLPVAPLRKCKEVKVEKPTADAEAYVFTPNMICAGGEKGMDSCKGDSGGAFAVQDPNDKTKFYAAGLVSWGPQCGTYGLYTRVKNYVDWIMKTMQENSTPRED
# Experiment Description: SPR, Ab captured; pH 5.8, 1.2 mM Ca
Overview of reported kon across a group of binders:

{"columns": ["Binder", "kon, M⁻¹ s⁻¹"],
 "data": [
  ["C1_IPN92H0026-SG4GK/IPN93L0024-SK1 (antibody, human IgG4 S228P, kappa, name in Kabat numbering, V domains shown, also called IPN92H0026/IPN93L0024) VH: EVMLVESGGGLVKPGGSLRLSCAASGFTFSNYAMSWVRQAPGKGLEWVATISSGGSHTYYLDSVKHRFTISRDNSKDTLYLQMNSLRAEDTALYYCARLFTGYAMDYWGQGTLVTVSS VL: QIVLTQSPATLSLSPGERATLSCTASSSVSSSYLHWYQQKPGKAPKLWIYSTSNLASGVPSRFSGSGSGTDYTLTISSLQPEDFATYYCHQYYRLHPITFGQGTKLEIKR", 451000],
  ["C1_IPN92H0033-SG4GK/IPN93L0030-SK1 (antibody, human IgG4 S228P, kappa, name in Kabat numbering, V domains shown, also called IPN92H0033/IPN93L0030) VH: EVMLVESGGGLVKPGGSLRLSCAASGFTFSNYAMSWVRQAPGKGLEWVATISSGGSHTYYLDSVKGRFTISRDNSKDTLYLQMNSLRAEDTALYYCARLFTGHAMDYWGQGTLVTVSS VL: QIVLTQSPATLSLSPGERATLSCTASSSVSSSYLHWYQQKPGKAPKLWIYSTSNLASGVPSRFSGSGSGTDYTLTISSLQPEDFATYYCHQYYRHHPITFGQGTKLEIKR", 503000],
  ["C1_IPN92H0026-SG4GK/IPN93L0028-SK1 (antibody, human IgG4 S228P, kappa, name in Kabat numbering, V domains shown, also called IPN92H0026/IPN93L0028) VH: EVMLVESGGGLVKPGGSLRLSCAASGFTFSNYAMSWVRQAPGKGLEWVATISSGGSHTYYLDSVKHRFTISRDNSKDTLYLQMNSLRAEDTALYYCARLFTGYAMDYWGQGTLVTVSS VL: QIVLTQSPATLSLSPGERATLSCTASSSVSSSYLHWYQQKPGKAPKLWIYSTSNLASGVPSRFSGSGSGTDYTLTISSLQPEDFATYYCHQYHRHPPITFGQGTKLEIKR", 557000],
  ["C1_IPN92H0038-SG4GK/IPN93L0028-SK1 (antibody, human IgG4 S228P, kappa, name in Kabat numbering, V domains shown, also called IPN92H0038/IPN93L0028) VH: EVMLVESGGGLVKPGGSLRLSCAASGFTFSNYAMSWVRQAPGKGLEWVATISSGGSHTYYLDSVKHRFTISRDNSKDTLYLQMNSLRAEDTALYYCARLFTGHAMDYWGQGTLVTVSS VL: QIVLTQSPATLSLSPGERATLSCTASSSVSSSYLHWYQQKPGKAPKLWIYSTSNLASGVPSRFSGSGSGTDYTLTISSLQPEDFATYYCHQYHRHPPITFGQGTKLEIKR", 445000]
]}
